These data points were gathered from ChEMBL document CHEMBL5724914.

COND: human gut metagenome, 24 h, 2 µM; also: call rule not given here
EXPERIMENTAL_ENDPOINT: Bacterial Biotransformation

| CHEMICAL_STRUCTURE | ASSAY_RESULT |
| --- | --- |
| COC1=CC(=O)C[C@@H](C)[C@]12Oc1c(Cl)c(OC)cc(OC)c1C2=O | Compound metabolized |
| CN1CC(=O)N2[C@H](c3ccc4c(c3)OCO4)c3[nH]c4ccccc4c3C[C@@H]2C1=O | Compound metabolized |

* * *

COND: human gut metagenome, 24 h, 2 µM
EXPERIMENTAL_ENDPOINT: Bacterial Biotransformation

| COMPOUND | ASSAY_RESULT |
| --- | --- |
| NS(=O)(=O)c1cc2c(cc1Cl)N=C(CSCc1ccccc1)NS2(=O)=O [BENZTHIAZIDE] | Compound NOT metabolized |
| CCN(CC)C(C)CN1c2ccccc2Sc2ccccc21 (configuration not stated) | Compound NOT metabolized |
| Cc1ccc(/C(=C\CN2CCCC2)c2ccccn2)cc1 | Compound NOT metabolized |
| C#C[C@]1(O)CC[C@H]2[C@@H]3CCC4=CC(=O)CC[C@@H]4[C@H]3CC[C@@]21CC | Compound metabolized |
| COc1ccccc1N1CCN(CC(O)COc2cccc3ccccc23)CC1 (configuration not stated) | Compound NOT metabolized |
| CCCC(=O)Nc1ccc(OCC(O)CNC(C)C)c(C(C)=O)c1 (configuration not stated) | Compound NOT metabolized |
| O=C1[C@H](CC[C@H](O)c2ccc(F)cc2)[C@@H](c2ccc(O)cc2)N1c1ccc(F)cc1 | Compound NOT metabolized |
| CC(C)(C#N)c1cc(Cn2cncn2)cc(C(C)(C)C#N)c1 | Compound NOT metabolized |
| CN/C(=N/CCSCc1nc[nH]c1C)NC#N | Compound NOT metabolized |
| O=C(O)CCc1nc(-c2ccccc2)c(-c2ccccc2)o1 | Compound metabolized |
| O=C(O)COCCN1CCN(C(c2ccccc2)c2ccc(Cl)cc2)CC1 (configuration not stated) | Compound metabolized |
| NC(=O)N1c2ccccc2CC(=O)c2ccccc21 [OXCARBAZEPINE] | Compound NOT metabolized |
